Reference for the values: patent US20240139185A1

biological target: cyclophilin A (CYPA) (Homo sapiens, UniProt P62937); assay: CYPA-compound binary complex formation by SPR; details: read-out: CYPA Binding Affinity
pKd: −log10 of the molar value.
Measured pKd values are reported for all entries that follow.

{"compound": "CNC(=O)c1cc2ccc3cc2n1CC(C)COC(=O)C1CCCN(N1)C(=O)C(NC(=O)C(C(C)C)N(C)C(=O)C1CN(C(=O)CCl)C1)Cc1cc(O)cc-3c1 (centres unmarked)", "pKd": "≥ 5.30"}
{"compound": "CC(C)[C@@H](C(=O)N[C@H]1Cc2cc(O)cc(c2)-c2ccc3c(c2)N(CC(C)(C)COC(=O)[C@@H]2CCCN(N2)C1=O)C(=O)C3)N(C)C(=O)C1CN(C(=O)CCl)C1", "pKd": "4.82 to 5.30"}
{"compound": "CC1COC(=O)[C@@H]2CCCN(N2)C(=O)[C@@H](NC(=O)[C@H](C(C)C)N(C)C(=O)C2CN(C(=O)CCl)C2)Cc2cc(O)cc(c2)-c2ccc3c(c2)c(cn3CC2COC2)C1 (single isomer, unassigned) [Compound 228]", "pKd": "≥ 5.30"}
{"compound": "CC(C)[C@@H](C(=O)N[C@H]1Cc2cc(O)cc(c2)-c2ccc3ncn(c3c2)CCCOC(=O)[C@@H]2CCCN(N2)C1=O)N(C)C(=O)C1CN(C(=O)CCl)C1", "pKd": "≥ 5.30"}
{"compound": "CC(C)[C@@H](C(=O)N[C@H]1Cc2cc(O)cc(c2)-c2ccc3c(C(C)(C)C#N)cn(c3c2)CC(CO)COC(=O)[C@@H]2CCCN(N2)C1=O)N(C)C(=O)C1CN(C(=O)CCl)C1 (single isomer, unassigned) [Compound 22]", "pKd": "4.82 to 5.30"}

---

target: BRAF-GTP-KRAS-G12C complex (Homo sapiens, UniProt P01116+P62937, G12C); construct: 50 nM of His6-KRas G12C-GTP (1-169); 500 nM of tagless CypA (1-165); assay: KRAS-BRAF complex disruption through competition with CYPA-compound by TR-FRET; conditions: biochemical BRAF-KRAS G12C-GTP disruption assay EC50, with CYPA
Measured EC50 values are reported for all entries that follow.

{"compound": "CC(C)C(C(=O)NC1Cc2cc(O)cc(c2)-c2ccc3c(C(C)(C)C#N)cn(c3c2)CC(CF)COC(=O)C2CCCN(N2)C1=O)N(C)C(=O)C1CN(C(=O)CCl)C1 (mixture of isomers)", "EC50": "≤ 0.5 µM"}
{"compound": "CC1COC(=O)[C@@H]2CCCN(N2)C(=O)[C@@H](NC(=O)[C@H](C(C)C)N(C)C(=O)C2CN(C(=O)CCl)C2)Cc2cc(O)cc(c2)-c2ccc3c(C#N)cn(c3c2)C1 (single isomer, unassigned)", "EC50": "0.5 to 5 µM"}
{"compound": "CC(C)C(C(=O)NC1Cc2cc(O)cc(c2)-c2ccc3c(C#N)cn(c3c2)CCCOC(=O)C2CCCN(N2)C1=O)N(C)C(=O)C1CN(C(=O)CCl)C1 (stereo not shown)", "EC50": "0.5 to 5 µM"}
{"compound": "C=CC(=O)N1CC(C(=O)N(C)[C@H](C(=O)N[C@H]2Cc3cc(O)cc(c3)-c3ccc4nc(C)n(c4c3)CC(C)(C)COC(=O)[C@@H]3CCCN(N3)C2=O)C(C)C)C1", "EC50": "0.5 to 5 µM"}
{"compound": "C=CC(=O)N1CCC(C(=O)N(C)C(C(=O)NC2Cc3cc(O)cc(c3)-c3ccc4c(-c5c(COC)noc5C)cn(c4c3)CC(C)(C)COC(=O)C3CCCN(N3)C2=O)C(C)C)C1 (stereo not shown)", "EC50": "0.5 to 5 µM"}
{"compound": "CC(C)[C@@H](C(=O)N[C@H]1Cc2cc(O)cc(n2)-c2ccc3c(C(C)(C)C#N)cn(c3c2)C[C@H](C)COC(=O)[C@@H]2CCCN(N2)C1=O)N(C)C(=O)C1CN(C(=O)CCl)C1", "EC50": "> 5 µM"}
{"compound": "C=CC(=O)N1CCN(C(=O)N(C)[C@H](C(=O)N[C@H]2Cc3cc(O)cc(c3)-c3ccc4c(C(C)(C)C#N)cn(c4c3)CC(C)(C)COC(=O)[C@@H]3CCCN(N3)C2=O)C(C)C)CC1", "EC50": "0.5 to 5 µM"}
{"compound": "CC(C)[C@@H](C(=O)N[C@H]1Cc2cc(O)cc(c2)-c2ccc3c(-c4ccnn4C)cn(c3c2)CC(C)(C)COC(=O)[C@@H]2CCCN(N2)C1=O)N(C)C(=O)C1CN(C(=O)CCl)C1", "EC50": "≤ 0.5 µM"}
{"compound": "CC(C)[C@@H](C(=O)N[C@H]1Cc2cc(O)cc(c2)-c2ccc3c(Cl)nn(c3c2)CC(C)(C)COC(=O)[C@@H]2CCCN(N2)C1=O)N(C)C(=O)C1CN(C(=O)CCl)C1", "EC50": "≤ 0.5 µM"}
{"compound": "CC(C)[C@@H](C(=O)N[C@H]1Cc2cc(O)cc(c2)-c2ccc3c(-c4ccccc4Cl)cn(c3c2)CC(C)(C)COC(=O)[C@@H]2CCCN(N2)C1=O)N(C)C(=O)C1CN(C(=O)CCl)C1", "EC50": "≤ 0.5 µM"}
